subject.of.test: T1, human delta opioid receptor (human, UniProt P41143 1-372)
T1 construct: delta opioid receptor, human recombinant, in membranes of transfected CHO cells; also called delta receptor; source: commercial membranes of CHO cells transfected with human recombinant opioid receptors
assay.protocol: radioligand binding; displacement of [3H]deltorphin-2 from commercial membranes of CHO cells transfected with the human recombinant delta opioid receptor; Ki, mean ± SEM, n ≥ 3
experimental.conditions: one partner purified
Starred links: 1 amine or outer side, 2 acyl side, 3 side chain; linkers in the order of their positions; H or OH if unused. Non-standard residues stand in square brackets, D forms with d. No end group written: not given here. (R)β21Nal = (R)-β2-1-naphthylalanine, O=C([C@@H](CN[*:1])Cc1cccc2ccccc12)[*:2]; (R)β31Nal = (R)-β3-1-naphthylalanine, O=C(C[C@@H](Cc1cccc2ccccc12)N[*:1])[*:2]; Dmt = Cc1cc(O)cc(C)c1C[C@H](N)C(=O)O
measurement.type: pKi
Please keep in mind that pKi is minus log10 of the molar concentration; only the number is needed.

[[record]]
binder = "[Dmt]P[(R)β31Nal]F-NH2 (N-terminus assumed; SMILES Cc1cc(O)cc(C)c1C[C@H](N)C(=O)N1CCC[C@H]1C(=O)N[C@@H](CC(=O)N[C@@H](Cc1ccccc1)C(N)=O)Cc1cccc2ccccc12) [EM-2 analog 13 (Dmt-Pro-(R)-β3-1-Nal-Phe-NH2)]"
reported_measurement = 6.14


Read the next record carefully.
Reported pKi of [Dmt]P[(R)β21Nal]F-NH2 (N-terminus assumed; SMILES Cc1cc(O)cc(C)c1C[C@H](N)C(=O)N1CCC[C@H]1C(=O)NC[C@@H](Cc1cccc2ccccc12)C(=O)N[C@@H](Cc1ccccc1)C(N)=O) [EM-2 analog 11 (Dmt-Pro-(R)-β2-1-Nal-Phe-NH2)] : 6.17
